- TARGET_OR_TEST_SYSTEM: T1, recombinant human CD70 (AviTag, polyhistidine tag and chicken tenascin trimerization domain fused to the … (chicken; human, UniProt P10039 110-139, limits assumed)
- T1 construct: domain: trimerization domain; Expressed in Expi293, purified by IMAC and SEC; Copies 3 is inferred from the trimerization domain; not shown: AviTag; polyhistidine tag
- T1 sequence: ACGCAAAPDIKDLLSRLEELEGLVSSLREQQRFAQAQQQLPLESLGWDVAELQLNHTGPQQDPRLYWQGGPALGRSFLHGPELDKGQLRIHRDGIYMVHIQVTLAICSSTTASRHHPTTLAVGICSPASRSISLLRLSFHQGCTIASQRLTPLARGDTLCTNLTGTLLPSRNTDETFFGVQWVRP
- RUN_DESCRIPTION: SPR (Biacore 8K, 37 C): CD70 captured via anti-AviTag antibody on C1 chip, scFv-Fc as analyte; 1:1 Langmuir fit
So I've got a bunch of binders here, and I need their kon values.
One number for each entry, in M⁻¹ s⁻¹.

Use the examples below as a reference point.
BINDER	RESULT_UNITS	kon
4F11 anti-CD70 scFv-Fc fusion (Fc fusion, scFv-Fc expressed in Expi293; not shown: part of the hinge and Fc from a modified human IgG2) QVTLKESGPVLVKPTETLTLTCTVSGFSLSNARMGVTWIRQPPGKALEWLAHIFSNDEKSYSTSLKSRLTISKDTSKTQVVLTMTNMDPVDTATYYCARIRDYYDISSYYDYWGQGTLVSVSSGGGGSGGGGSGGGGSGGGGSDIQMTQSPSAMSASVGDRVTITCRASQDISNYLAWFQQKPGKVPKRLIYAASSLQSGVPSRFSGSGSGTEFTLTISSLLPEDFATYYCLQLNSFPFTFGGGTKVEIN	M⁻¹ s⁻¹	825000
P15D02 anti-CD70 scFv-Fc fusion (Fc fusion, scFv-Fc expressed in Expi293; not shown: part of the hinge and Fc from a modified human IgG2) EVQLVQSGAEVKKPGESLKISCKGSGYSFASYWIGWVRQMPGKGLEWMGVIYPGTSETRYSPSFQGQVTISADKSISTAYLQWSSLKASDTAMYYCAKGLSASASGYSFQYWGQGTLVTVSSGGGGSGGGGSGGGGSGGGGSELDIQMTQSPSSLSASVGDRVTITCRASQSIDTYLNWYQQKPGKAPKLLIYSASSLHSGVPSRFSGSGSGTDFTLTISSLQPEDFATYYCQQSYSTTAWTFGQGTKVEIK	M⁻¹ s⁻¹	286000
P08G02 anti-CD70 scFv-Fc fusion (Fc fusion, scFv-Fc expressed in Expi293; not shown: part of the hinge and Fc from a modified human IgG2) EVQLVQSGAEVKKPGESLKISCKGSGYTFPSSWIGWVRQMPGKGLEWMGIIYPDTSHTRYSPSFQGQVTISADKSISTAYLQWSSLKASDTAMYYCARASYFDRGTGYSSWWMDVWGQGTLVTVSSGGGGSGGGGSGGGGSGGGGSELDIQMTQSPSSLSASVGDRVTITCRASQSIYDYLHWYQQKPGKAPKLLIYDASNLQSGVPSRFSGSGSGTDFTLTISSLQPEDFATYYCQQSYTTPLFTFGQGTKVEIK	M⁻¹ s⁻¹	23900
12D6 anti-CD70 scFv-Fc fusion (Fc fusion, scFv-Fc expressed in Expi293; not shown: part of the hinge and Fc from a modified human IgG2) QVQLQESGPGLVKPSQTLSLTCTVSGGSISSDAYYWSWIRQHPGKGLEWIGYMYYSGITYYNPSLKSRVTISVDTSKNQFSLKLSSVTAADTAVYYCARDFGWYFDLWGRGTLVTVSSGGGGSGGGGSGGGGSGGGGSDIQMTQSPSSLSASVGDRVTITCRASQDISNYLAWYQQKPGKVPKLLIYAASTLHSGVPSRFSGSGSGTDFTLTISSLQPDDFAAYYCQKYNSAPRTFGQGTKVEIK	M⁻¹ s⁻¹	71200

Now look at this entry.
The reported kon of the binder P08E02 anti-CD70 scFv-Fc fusion (Fc fusion, scFv-Fc expressed in Expi293; not shown: part of the hinge and Fc from a modified human IgG2) EVQLVQSGAEVKKPGESLKISCKGSGYSFTSSWIGWVRQMPGKGLEWMGIIYPGDSDTRYSPSFQGQVTISADKSISTAYLQWSSLKASDTAMYYCAKGLSQAMTGFGFDYWGQGTLVTVSSGGGGSGGGGSGGGGSGGGGSELDIQMTQSPSSLSASVGDRVTITCRASQSISRYLNWYQQKPGKAPKLLIYAASILQTGVPSRFSGSGSGTDFTLTISSLQPEDFATYYCQQSYSTTMWTFGQGTKVEIK was 823000
